assay.info: Plasma stability in vitro (HPLC), human plasma
Where no end group is shown, it is not given here.
recorded.metric: half-life at 60 µM

Prompt: So what does the record say about half-life at 60 µM for RPPGFSPFR [bradykinin] ?
Completion: < 5 min

====

tested.system: Bradykinin Receptor (Cavia porcellus)
Sequence (O70526 1-372): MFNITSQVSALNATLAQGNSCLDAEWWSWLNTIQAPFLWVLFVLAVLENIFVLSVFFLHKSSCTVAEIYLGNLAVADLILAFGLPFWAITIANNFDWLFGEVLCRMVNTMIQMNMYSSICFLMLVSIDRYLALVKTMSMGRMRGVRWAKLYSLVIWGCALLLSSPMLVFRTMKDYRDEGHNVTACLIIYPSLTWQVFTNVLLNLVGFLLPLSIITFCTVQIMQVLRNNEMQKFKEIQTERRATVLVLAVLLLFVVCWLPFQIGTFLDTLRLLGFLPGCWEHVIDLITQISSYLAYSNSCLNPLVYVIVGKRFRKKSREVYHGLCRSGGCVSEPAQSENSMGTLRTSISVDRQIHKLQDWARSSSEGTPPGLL
Where a SMILES comes first, the peptide text is derived from it. [ ]: non-standard residue; d: D form. d(hArg)(Nω,Nω'-(CH2CF3)2) = N[C@H](CCCCNC(=NCC(F)(F)F)NCC(F)(F)F)C(=O)O; Oic = O=C(O)[C@@H]1C[C@@H]2CCCC[C@@H]2N1; Arg(Me2s) = CN=C(NC)NCCC[C@H](N)C(=O)O; Arg(Me) = CNC(=N)NCCC[C@H](N)C(=O)O; Hyp = O=C(O)[C@@H]1C[C@@H](O)CN1; dTic = O=C(O)[C@H]1Cc2ccccc2CN1; 2Thi = N[C@@H](Cc1cccs1)C(=O)O
recorded.metric: IC50 (nM)
Dear colleague, please return just the value in nM, with no unit written.

Prompt: So what does the record say about IC50 for CN=C(NC)NCCC[C@H](NC(=O)[C@@H]1C[C@@H]2CCCC[C@@H]2N1C(=O)[C@H]1Cc2ccccc2CN1C(=O)[C@H](CO)NC(=O)[C@H](Cc1ccccc1)NC(=O)CNC(=O)[C@@H]1C[C@@H](O)CN1C(=O)[C@@H]1CCCN1C(=O)[C@H](CCCNC(=NC)NC)NC(=O)[C@H](N)CCCCNC(=NCC(F)(F)F)NCC(F)(F)F)C(=O)O [Compound 89] (H-[d(hArg)(Nω,Nω'-(CH2CF3)2)][Arg(Me2s)]P[Hyp]GFS[dTic][Oic][Arg(Me2s)]-OH) ?
Completion: 0.07

Prompt: So what does the record say about IC50 for CN=C(N)NCCC[C@H](NC(=O)[C@H](Cc1ccc(OC)cc1)NC(=O)[C@@H](Cc1ccccc1)NC(=O)[C@H](CO)NC(=O)[C@H](Cc1ccccc1)NC(=O)CNC(=O)[C@@H]1C[C@@H](O)CN1C(=O)[C@@H]1CCCN1C(=O)[C@H](CCCNC(=N)N)NC(=O)[C@H](N)CCCNC(=N)N)C(=O)O [Compound 74] (H-[dR]RP[Hyp]GFS[dF]Y(Me)[Arg(Me)]-OH) ?
Completion: 30

Prompt: So what does the record say about IC50 for N=C(N)NCCC[C@H](NC(=O)[C@@H]1CCCN1C(=O)[C@H]1Cc2ccccc2CN1C(=O)[C@H](CO)NC(=O)[C@H](Cc1cccs1)NC(=O)CNC(=O)[C@@H]1C[C@@H](O)CN1C(=O)[C@@H]1CCCN1C(=O)[C@H](CCCNC(=N)N)NC(=O)[C@H](N)CCCCNC(=NCC(F)(F)F)NCC(F)(F)F)C(=O)O [Compound 75] (H-[d(hArg)(Nω,Nω'-(CH2CF3)2)]RP[Hyp]G[2Thi]S[dTic]PR-OH) ?
Completion: 1
